- Tested on: HL-60(TB) leukemia
- Test: NCI tumour cell line growth inhibition, 48 h; in the data active means GI50 below about 0.43 µM; inactive means the rest
Permitted responses: True for active, False for inactive

Example entries begin here.
| Compound | Class |
| --- | --- |
| CCCCOC(=O)CC(CC(=O)OCCCC)(OC(C)=O)C(=O)OCCCC | False |
| Cn1cc(-c2csc(-c3c[nH]c4ccccc34)n2)c2cnccc21 | False |
| C=C1C(O)C2C(=C(CCC3CC3)C13CC3)C(=O)C(C)(C)C2O (stereo not given) | False |
| Nc1nc2cc(O)ccc2n2cc3c(F)cccc3c12 | False |

[Q] For CC(=O)NC1C(OCc2ccccc2)OC(CO)C(O)C1OC(C)C(=O)NC(C)C(=O)N[C@@H](CCC(=O)OCCCNC1c2ccccc2Nc2cccc([N+](=O)[O-])c21)C(N)=O (stereo not given in full) , what call appears in the results of this test?
[A] True

====

- Test system: OVCAR-3 ovarian
- Test: NCI tumour cell line growth inhibition, 48 h
Where a SMILES comes first, the peptide text is derived from it. [ ]: non-standard residue; d: D form. The star is where a group is joined. ξ: configuration not given here. NMeF = CN[C@@H](Cc1ccccc1)C(=O)O; NMeV = CN[C@H](C(=O)O)C(C)C; ξNMeN = CNC(CC(N)=O)C(=O)O; NMeA = CN[C@@H](C)C(=O)O; ξNMeV = CNC(C(=O)O)C(C)C; Boc = CC(C)(C)OC(=O)*
Form field: TGI (one value per entry).

| Compound | Value Observed |
| --- | --- |
| C=C(CCOC)CCC1CCCCC/C1=N\N(C)C (centres undefined) | > 100 µM |
| COC(=O)[C@H](C)N(C)C(=O)C(CC(N)=O)N(C)C(=O)[C@H](Cc1ccccc1)N(C)C(=O)[C@@H]1CCCN1C(=O)[C@H](C(C)C)N(C)C(=O)C(C(C)C)N(C)C(=O)[C@@H](NC(=O)OC(C)(C)C)C(C)C (some centres undefined) (Boc-V[ξNMeV][NMeV]P[NMeF][ξNMeN][NMeA]-OMe) | > 75 µM |
| COc1cc([C@@H]2c3cc4c(cc3[C@@H](OC3OC5CO[C@@H](c6cccs6)OC5C(O)C3O)[C@H]3COC(=O)[C@H]23)OCO4)cc(OC)c1O (some centres undefined) | 6.89 µM |

As a next step, examine the compound that follows.
Field TGI (OVCAR-3 ovarian), entry CCOC(=O)N1CCN(P(=O)(Nc2ccc3nc(NC(=O)OC)[nH]c3c2)Oc2ccccc2)CC1 (centres undefined) : > 100 µM

====

- Tested on: OVCAR-3 ovarian
- Test: NCI tumour cell line growth inhibition, 48 h; in the data active means GI50 below about 0.43 µM; inactive means the rest
Classes to choose from: true (1) for active, false (0) for inactive

| Molecule | Experimental Target | Class |
| --- | --- | --- |
| CC(C)N(CCCNC(=O)Nc1ccc(C(C)(C)C)cc1)C[C@H]1O[C@@H](n2ccc3c(N)ncnc32)[C@H](O)[C@@H]1O | OVCAR-3 ovarian | false (0) |
| CC(=O)NC1C(OCc2ccccc2)OC(CO)C(O)C1OC(C)C(=O)NC(C)C(=O)N[C@@H](CCC(=O)OCCCNC1c2ccccc2Nc2cccc([N+](=O)[O-])c21)C(N)=O (stereo partly drawn) | OVCAR-3 ovarian | true (1) |
| CC(=O)Oc1cc(C(C)C)c(OCCN(C)C)cc1C | OVCAR-3 ovarian | false (0) |

In the following, a different molecule is considered.
[Q] Please share the test call associated with Cc1cc2cn3c4ccc(O)cc4nc(N)c3c2cc1C .
[A] true (1)
